# TARGET_ENTITY: Human TRPC6 (Homo sapiens, UniProt Q9Y210)
# Construct: expressed in transfected cells
# Sequence (Q9Y210 whole entry): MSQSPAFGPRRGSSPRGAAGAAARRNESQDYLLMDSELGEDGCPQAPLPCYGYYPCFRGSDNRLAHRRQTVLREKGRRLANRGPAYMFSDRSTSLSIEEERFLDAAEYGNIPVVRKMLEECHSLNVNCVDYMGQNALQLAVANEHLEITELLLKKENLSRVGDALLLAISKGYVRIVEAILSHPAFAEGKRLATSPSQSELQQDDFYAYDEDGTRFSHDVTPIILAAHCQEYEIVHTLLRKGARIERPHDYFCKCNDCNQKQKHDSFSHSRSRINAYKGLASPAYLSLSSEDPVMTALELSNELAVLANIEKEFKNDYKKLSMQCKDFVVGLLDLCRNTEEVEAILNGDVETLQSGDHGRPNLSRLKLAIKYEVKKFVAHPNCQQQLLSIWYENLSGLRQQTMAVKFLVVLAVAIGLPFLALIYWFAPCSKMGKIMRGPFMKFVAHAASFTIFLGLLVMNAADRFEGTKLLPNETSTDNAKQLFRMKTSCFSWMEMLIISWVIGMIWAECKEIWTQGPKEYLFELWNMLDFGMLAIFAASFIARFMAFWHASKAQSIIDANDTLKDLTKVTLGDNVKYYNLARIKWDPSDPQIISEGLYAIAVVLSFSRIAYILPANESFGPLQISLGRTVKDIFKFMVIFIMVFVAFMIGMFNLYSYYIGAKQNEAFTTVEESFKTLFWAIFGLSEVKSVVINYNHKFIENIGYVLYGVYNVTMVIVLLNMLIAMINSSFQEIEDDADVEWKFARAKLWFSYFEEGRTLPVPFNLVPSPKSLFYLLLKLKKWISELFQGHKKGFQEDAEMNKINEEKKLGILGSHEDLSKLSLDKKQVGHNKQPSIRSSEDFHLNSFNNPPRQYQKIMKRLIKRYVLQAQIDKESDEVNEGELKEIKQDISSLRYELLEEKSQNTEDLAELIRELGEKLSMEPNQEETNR
# PROTOCOL: Evaluation of TRPC6 channel inhibitory activity (1), FLIPR Calcium 5 Assay Kit, OAG stimulation (Compound Nos. 1-1293)
# Type: cell-based
# APPLIED_CONDITIONS: Human TRPC6 stably-expressing cells, OAG 30 μM, FLIPR Calcium 5 Assay Kit; read-out: Inhibitory activity (pIC50 class) (converted)
ENDPOINT: IC50

Cc1nn(CC2CC2)cc1C(=O)c1cc(C#N)ccc1-c1ncc(CN)cn1 [compound 1035]    < 10 nM
CN(C)c1cc(C(=O)c2cc(C#N)ccc2-c2ncc(CN)cn2)n(C)n1 [compound 1051]    < 10 nM
Cc1ccc(-c2cn(Cc3cc(C#N)ccc3-c3ccc(CCN)cn3)cn2)cc1 [compound 1146]    10 to 1000 nM
Cc1nc(Oc2cc(C#N)ccc2-c2ncc(CCN)cn2)cc(N2CCOCC2)n1 [compound 434]    < 10 nM

// input: 4 compounds below; output: IC50 for each
1. N#Cc1ccc(-n2cc(CCN)cn2)c(Sc2cnnc(N3CCCCC3)c2)c1 [Compound No. 1246]
2. N#Cc1ccc(-c2ccc(CCN)cc2)c(Oc2cnnc(-c3ccccn3)c2)c1 [Compound 114]
3. Cc1nn(C(C)C)c(C)c1Oc1cc(C#N)ccc1-c1ncc(CCN)cn1 [compound 942]
4. COCCN(C)c1cc(Oc2cc(C#N)ccc2-c2ncc(CN)cn2)n(C)n1 [compound 798]

Result:
1. 10 to 1000 nM
2. 10 to 1000 nM
3. > 1000 nM
4. 10 to 1000 nM

---

# TARGET_ENTITY: Human TRPC6 (Homo sapiens)
# Construct: expressed in transfected cells
# PROTOCOL: Evaluation of TRPC6 channel inhibitory activity (1), FLIPR Calcium 5 Assay Kit, OAG stimulation (Compound Nos. 1-1293)
# Assay type: cell-based
# APPLIED_CONDITIONS: Human TRPC6 stably-expressing cells, OAG 30 μM, FLIPR Calcium 5 Assay Kit; read-out: Inhibitory activity (pIC50 class) (converted)
ENDPOINT: IC50

Cn1nc(-c2ncccn2)cc1Oc1cc(C#N)ccc1-c1ccc(CCN)cn1    10 to 1000 nM

Each compound below has a reported value. Please supply its IC50.
1. Cn1nc(-c2ccccc2)cc1Oc1cc(C#N)ccc1-c1ccc(C(N)CO)cn1 (stereo not drawn)
2. Cc1nc(NCC2CCOCC2)cc(Oc2cc(C#N)ccc2-c2ncc(CN)cn2)n1
3. N#Cc1ccc(-c2ccc(CN)cn2)c(Sc2cnnc(N3CCCC3)c2)c1

Result:
1. < 10 nM
2. > 1000 nM
3. 10 to 1000 nM

Can you give me IC50 for all of these, one by one?
1. Cc1nc(Oc2cc(C#N)ccc2-c2ccc(CCN)cc2)cc(-c2ccccc2C#N)n1
2. CC(C)Cn1cc(Oc2cc(Cl)ccc2-c2ncc(CCN)cn2)cn1
3. Cc1nc(Oc2cc(C#N)ccc2-c2cnc(N)nc2)cc(N2CCOCC2)n1
4. Cc1nc(Oc2cc(C#N)ccc2-c2ncc(CCN)cn2)cc(N2CCC[C@H]2C)n1
5. Cc1nc(-c2ccccn2)cn1Cc1cc(C#N)ccc1-c1ccc(CCN)cn1
6. Cc1cc(Oc2cc(C#N)ccc2-c2ncc(CCN)cn2)cc(C2CC2)n1
7. Cc1nc(Oc2cc(C#N)ccc2-c2ncc(CN)cn2)cc(N(C)CC2CC2)n1
8. Cc1c(Oc2cc(F)ccc2-c2ncc(CCN)cn2)cnn1CC(C)(C)C

Result:
< 10 nM
10 to 1000 nM
> 1000 nM
< 10 nM
10 to 1000 nM
< 10 nM
10 to 1000 nM
10 to 1000 nM

Required: IC50, one value per compound below.
1. CC(C)Cn1cc(Cc2cc(C#N)ccc2-c2ncc(CN)cn2)cn1
2. Cn1nc(C2CC2)cc1Oc1cc(C#N)ccc1-c1cc(OCCCN)ccn1
3. Cc1nc(Oc2cc(C#N)ccc2-c2ncc(CN)cn2)cc(OC(C)C)n1

Result:
1. 10 to 1000 nM
2. > 1000 nM
3. 10 to 1000 nM

Would you be so kind as to report IC50 for each listed record?
1. COCCNc1cc(Oc2cc(C#N)ccc2-c2ncc(CN)cn2)nc(C)n1
2. Cc1c(Oc2cc(F)ccc2-c2ncc(CCN)cn2)cnn1CC(C)C
3. N#Cc1ccc(-c2ccc(CCN)cn2)c(Cn2cnc(-c3ccccc3Cl)c2)c1

Result:
> 1000 nM
10 to 1000 nM
< 10 nM
